# protocol details: soluble on expression in E. coli; label from the status in PepcDB or PDB records
readout label: soluble on expression in E. coli

sequence content | readout label | measured result
MSLKIKLIAVDLDGTLLTSRKKVSPKTLATLKKAREKGILVVPLSGRPLPGVLKVFEPFKLDPADNFAICYNGGLVQRMDGEVLSVSPLTDENVEHMLALKQTGIFGPYFMDTKDFYVAPKGSSFGVGFLAKARNMGVKRMVPGQHYEFIKGEFVSLPSKIKKFRAGFSPATEQEFEISASGGQCLEFNTPGTSKGQALTTLLDLLNIQPEEAMVFGDNNNDLSDFQLPGVFKVAMGNAIDEIKAAADYVTASNNQDGIALAVEKFVDMEGHHHHHH | soluble on expression in E. coli | soluble
MALADISGYLDVLDSVRGFSYLENAREVLRSGEARCLGNPRSEPEYVKALYVIGASRIPVGDGCSHTLEELGVFDISVPGEMVFPSPLDFFERGKPTPLVRSRLQLPNGVRVWLKLEWYNPFSLSVKDRPAVEIISRLSRRVEKGSLVADATSSNFGVALSAVARLYGYRARVYLPGAAEEFGKLLPRLLGAQVIVDPEAPSTVHLLPRVMKDSKNEGFVHVNQFYNDANFEAHMRGTAREIFVQSRRGGLALRGVAGSLGTSGHMSAAAFYLQSVDPSIRAVLVQPAQGDSIPGIRRVETGMLWINMLDISYTLAEVTLEEAMEAVVEVARSDGLVIGPSGGAAVKALAKKAAEGDLEPGDYVVVVPDTGFKYLSLVQNALEGAGDSV | soluble on expression in E. coli | soluble
IDKIENYEQSTSQLREEIKTLYNEVIDIGKKLSQERRRVARELRDHIVSEIQNLQMKDANLEISFKPLDEPTIEGIEFVEFLISPNRGEPLKSLNKIASGGELSRIMLALKSIFVKSRGQTAILFDEVDSGVSGQAAQKMAEKMRDIAQYIQVICISHLPQVASMSDHHLLISKASNADRTTTQVKELKDENKIDEIARMISGASVTELTRENAKEMIKQNHNI | soluble on expression in E. coli | not soluble
QSQGGGSVTKKRKLESSESRSSFSQHARTSGRVAVEEVDEEGKFVRLRNKSNEDQSMGNWQIRRQNGDDPLMTYRFPPKFTLKAGQVVTIWASGAGATHSPPTDLVWKAQNTWGCGSSLRTALINSTGEEVAMRKLVR | soluble on expression in E. coli | soluble
LRPEDFTTLLQTADFRLRLLEAIAAATRRVYICALYLENEEAGQEMLDALYRAKQRNPQLDVRVMVDWHRAQRGRIGEDQSHCNASWYREEAARRELDIPIYGVPVQTRELFGVLHLKGFVIDDTVFYSGASLNNVYLHKLDKYRFDRYHLIRSPELADAMAGFMAEQFFNDPAVFRLD | soluble on expression in E. coli | not soluble

May I ask what soluble on expression in E. coli has been recorded for NRYAKLCMEREINKRTVLMQEMELENYKKINQANDKYMELLHNSNHYMRTVYGLLEQDNKDEAINIMDSVLTEYEEGELIEYSTNSILNTILSEYYDKSKTNHIEFNIFVEPGFNIECVESMDLVAMVSNLISNAYEAALKSDEKKIKVQMYMQNDGSFIIIKIENSFSGEIVSQGDRLLTTKKDGNIHGVGIESVEKVAEKYDGWVSTSWGNKSFRTMLVLNNSYVV ?
not soluble
